Could you please report measured Median (B1-A) for the items listed next?
Molecular target: T1, human CD5 on the cell surface (human, UniProt P06127 25-495)
T1 construct: whole, on cells; One molecule for CD5 on all cell lines; also called natural CD5 on the cell membrane; CD5 antigen on Jurkat, CCRF-CEM, MOLT4 cells
T1 sequence (looked up): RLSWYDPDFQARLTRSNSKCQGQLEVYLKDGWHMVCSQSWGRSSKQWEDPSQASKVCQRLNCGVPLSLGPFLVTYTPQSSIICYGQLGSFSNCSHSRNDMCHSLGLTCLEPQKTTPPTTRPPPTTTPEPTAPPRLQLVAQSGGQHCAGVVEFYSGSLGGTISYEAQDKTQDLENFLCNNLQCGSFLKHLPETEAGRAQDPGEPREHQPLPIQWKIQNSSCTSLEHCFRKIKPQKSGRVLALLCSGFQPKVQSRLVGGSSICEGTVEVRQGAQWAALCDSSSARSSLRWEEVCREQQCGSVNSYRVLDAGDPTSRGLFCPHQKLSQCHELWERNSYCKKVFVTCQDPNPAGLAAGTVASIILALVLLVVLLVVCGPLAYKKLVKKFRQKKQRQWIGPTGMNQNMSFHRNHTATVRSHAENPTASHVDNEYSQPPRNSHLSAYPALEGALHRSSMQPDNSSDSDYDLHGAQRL
Assay: phage FACS on CCRF-CEM cells (CD5 positive), anti-M13 + FITC anti-mouse IgG, median of FITC-A

See these solved cases before continuing.
phage monoclone #7 (scFv, also called scFv7) scFv: QSVVTQPPSVSAAPGQKATISCSGSSSNIGNNDVSWYQQLPGTAPKLLIQDNDKRPSGIPDRFSGSKSGTSATLGITGLQTGDEADYYCAVWDSSLSAAVFGPGTKVTVLGSRGGGGSGGGGSGGGGSLEMAEVQLVQSGAEVKKPGESLKISCKGSGYSFTSYWIGWVRQMPGKGLEWMGIIYPDDSDTTYSPSFQGQVTMSVDKSISTAYLQWNSLQASDTAMYYCARMSLTSYLATDGWGQGTLVTVSS ... 12.4
phage monoclone #10 (scFv, also called scFv10) scFv: QSVVTQPPSVSGAPGQRVTISCTGSSSNIGAGYDVHWYQQLPGTAPKLLIYGNINRPSGVPDRFSGSKSGTSASLAITGLQAEDEADYYCGTWDNSLSAHYVFGTGTKVTVLGSRGGGGSGGGGSGGGGSLEEVQLLESGGGLVKPGGSLRLSCAASGFTFNNYTMNWVRQAPGKGLEWVSSISSSSSYIYYADSVKGRFTISRDNAKNSLFLQMNSLRGEDTAVYYCARYFSGSAGDYWGQGTLVTVSS ... 17.1
phage monoclone #6 (scFv, also called scFv6) scFv: NFMLTQPHSVSESPGKTVTISCTGNSGSIARNYVQWYQQRPGSAPTMLIYEDNRRPSGVPDRFSGSIDSSSNSASLTISGLKTEDEADYYCQSYDDNTSWVFGGGTKLTVLGSRGGGGSGGGGSGGGGSLEMAEVQLVQSGAEVKKPGSSVKVSCKASGGTFSSNAITWVRQAPGQGLEWMGGIIPMFGTTDYAQKFQGRVTMTADESTSTAYMELRSLRSEDTAVYYCARDGGGRHPYYYYGMDVWGQGTTVTVSS ... 1.71

Continue with the binder presented below.
Please look up its Median (B1-A): phage monoclone #9 (scFv, also called scFv9) scFv: QPVLTQPPSVSGSPGQSVTISCTGTSDDIGNYKRVSWYQQPPGTAPKLMIYEVTNRPPGVPNRFSGSKSGNTASLTISGLQAEDEADYYCSSYASGDTYVFGTGTKVTVLGSRGGGGSGGGGSGGGGSLEQVQLVQSGAEVEKPGASVKISCKASTYTFTNYYIHWVRQAPGQGLEWMGMINPSGDTTSYAQKFQGRVTMTRDTSTSTVYMELSSLRSEDTAVYYCARLSWYWGGSFDDWGQGTLVTVSS
3.37
